# assayed.system: bovine intestinal alkaline phosphatase (Bos taurus (Bovine), UniProt P19111)
# Sequence (P19111 20-506): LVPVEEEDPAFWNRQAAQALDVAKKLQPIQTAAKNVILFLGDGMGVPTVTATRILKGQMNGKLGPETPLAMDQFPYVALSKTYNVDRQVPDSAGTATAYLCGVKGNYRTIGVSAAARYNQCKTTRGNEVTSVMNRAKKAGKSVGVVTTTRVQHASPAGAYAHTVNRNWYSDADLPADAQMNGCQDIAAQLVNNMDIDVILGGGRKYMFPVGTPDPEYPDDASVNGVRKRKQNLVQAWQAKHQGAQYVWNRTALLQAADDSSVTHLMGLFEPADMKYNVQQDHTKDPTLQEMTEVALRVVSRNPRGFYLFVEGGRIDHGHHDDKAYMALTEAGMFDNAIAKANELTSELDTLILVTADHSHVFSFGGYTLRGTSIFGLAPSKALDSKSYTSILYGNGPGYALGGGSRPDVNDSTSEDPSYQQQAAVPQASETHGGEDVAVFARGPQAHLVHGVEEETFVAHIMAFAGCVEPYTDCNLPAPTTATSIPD
# assay.details: BiALP: conversion by bovine intestinal alkaline phosphatase
# Format: in vitro ADME
# assay.context: 2 μM substrate, 100 ng/mL iALP, Tris pH 7.8, 37° C., 60 minutes
# Method: Fosamprenavir and its parent compound (amprenavir) were purchased from Millipore Sigma (St. Louis, MO). […] Incubations were performed with Tris buffer alone (0.1 M Tris-HCl pH 7.8 containing 1 mM MgCl2 and 1 mM ZnCl2) or the same Tris buffer further containing 100 ng/mL iALP (0.01 units/mL). […] Aliquots (15 μL) of the diluted supernatants were analyzed by mass spectrometry as described below. […]
measurement.kind: [Compound] (nM)
Please reply with the bare figure in nM and do not write the unit itself.

Field: example entries. Status: answers known.
COC(=O)N[C@H](C(=O)N[C@@H](Cc1ccc(C#Cc2cnc(N3CC4CCC(C3)N4C3COC3)nc2)cc1)[C@H](CN(Cc1c(F)cc(-c2ccn(C(F)F)n2)cc1F)NC(=O)[C@@H](NC(=O)OC)C(C)(C)C(F)(F)F)OC(=O)CC(C)(C)c1c(CC(=O)N[C@@H](CC(N)=O)C(=O)O)cc(C)cc1OP(=O)(O)O)C(C)(C)C(F)(F)F : 1704.6
COC(=O)N[C@H](C(=O)N[C@@H](Cc1ccc(C#Cc2cnc(N3CC4CCC(C3)N4C3COC3)nc2)cc1)[C@H](CN(Cc1c(F)cc(-c2ccn(C(F)F)n2)cc1F)NC(=O)[C@@H](NC(=O)OC)C(C)(C)C(F)(F)F)OC(=O)CC(C)(C)c1c(CC(=O)N[C@@H](Cc2c[nH]c3ccccc23)C(=O)O)cc(C)cc1OP(=O)(O)O)C(C)(C)C(F)(F)F : 2071.6

# value lookup — system bovine intestinal alkaline phosphatase (Bos taurus (Bovine), UniProt P19111), readout [Compound], item COC(=O)N[C@H](C(=O)N[C@@H](Cc1ccc(C#Cc2cnc(N3CC4CCC(C3)N4C3COC3)nc2)cc1)[C@H](CN(Cc1c(F)cc(-c2ccn(C(F)F)n2)cc1F)NC(=O)[C@@H](NC(=O)OC)C(C)(C)C(F)(F)F)OC(=O)CC(C)(C)c1c(CC(=O)N[C@]2(C(=O)O)CCOC2)cc(C)cc1OP(=O)(O)O)C(C)(C)C(F)(F)F
1521.8

# value lookup — system bovine intestinal alkaline phosphatase (Bos taurus (Bovine), UniProt P19111), readout [Compound], item COC(=O)N[C@H](C(=O)N[C@@H](Cc1ccc(C#Cc2cnc(N3CC4CCC(C3)N4C3COC3)nc2)cc1)[C@H](CN(Cc1c(F)cc(-c2ccn(C(F)F)n2)cc1F)NC(=O)[C@@H](NC(=O)OC)C(C)(C)C(F)(F)F)OC(=O)CC(C)(C)c1c(CC(=O)N2CCN(S(C)(=O)=O)CC2)cc(C)cc1OP(=O)(O)O)C(C)(C)C(F)(F)F
2507.9

# value lookup — system bovine intestinal alkaline phosphatase (Bos taurus (Bovine), UniProt P19111), readout [Compound], item COC(=O)N[C@H](C(=O)N[C@@H](Cc1ccc(C#Cc2cnc(N3CC4CCC(C3)N4C3COC3)nc2)cc1)[C@H](CN(Cc1c(F)cc(-c2ccn(C(F)F)n2)cc1F)NC(=O)[C@@H](NC(=O)OC)C(C)(C)C(F)(F)F)OC(=O)CC(C)(C)c1c(CC(=O)N[C@@H](CCS(=O)(=O)O)C(=O)O)cc(C)cc1OP(=O)(O)O)C(C)(C)C(F)(F)F
1487.1

# value lookup — system bovine intestinal alkaline phosphatase (Bos taurus (Bovine), UniProt P19111), readout [Compound], item COC(=O)N[C@H](C(=O)N[C@@H](Cc1ccc(C#Cc2cnc(N3CC4CCC(C3)N4C3COC3)nc2)cc1)[C@H](CN(Cc1c(F)cc(-c2ccn(C(F)F)n2)cc1F)NC(=O)[C@@H](NC(=O)OC)C(C)(C)C(F)(F)F)OC(=O)CC(C)(C)c1c(CC(=O)N2CCC(C(=O)O)CC2C(=O)O)cc(C)cc1OP(=O)(O)O)C(C)(C)C(F)(F)F (stereo partly drawn)
1948

====

Below, each entry is listed alongside its reported [Compound].
# assayed.system: bovine intestinal alkaline phosphatase (Bos taurus (Bovine))
# assay.details: BiALP: conversion by bovine intestinal alkaline phosphatase
# Format: in vitro ADME
# assay.context: 2 μM substrate, 100 ng/mL iALP, Tris pH 7.8, 37° C., 60 minutes
Please reply with the bare figure in nM and do not write the unit itself.

Field: example entries. Status: answers known.
COC(=O)N[C@H](C(=O)N[C@@H](Cc1ccc(C#Cc2cnc(N3CC4CCC(C3)N4C3COC3)nc2)cc1)[C@H](CN(Cc1c(F)cc(-c2ccn(C(F)F)n2)cc1F)NC(=O)[C@@H](NC(=O)OC)C(C)(C)C(F)(F)F)OC(=O)CC(C)(C)c1c(CC(=O)N(CCC(=O)O)[C@@H](CCC(=O)O)C(=O)O)cc(C)cc1OP(=O)(O)O)C(C)(C)C(F)(F)F : 1835.9
COC(=O)N[C@H](C(=O)N[C@@H](Cc1ccc(C#Cc2cnc(N3CC4CCC(C3)N4C3COC3)nc2)cc1)[C@H](CN(Cc1c(F)cc(-c2ccn(C(F)F)n2)cc1F)NC(=O)[C@@H](NC(=O)OC)C(C)(C)C(F)(F)F)OC(=O)CC(C)(C)c1c(CC(=O)N2CCC[C@H]2C(=O)O)cccc1OP(=O)(O)O)C(C)(C)C(F)(F)F : 1864.7
COC(=O)N[C@H](C(=O)N[C@@H](Cc1ccc(C#Cc2cnc(N3CC4CCC(C3)N4C3COC3)nc2)cc1)[C@H](CN(Cc1c(F)cc(-c2ccn(C(F)F)n2)cc1F)NC(=O)[C@@H](NC(=O)OC)C(C)(C)C(F)(F)F)OC(=O)CC(C)(C)c1c(CC(=O)Nc2ccc(OC)c(S(=O)(=O)O)c2)cc(C)cc1OP(=O)(O)O)C(C)(C)C(F)(F)F : 1468.1
COC(=O)N[C@H](C(=O)N[C@@H](Cc1ccc(C#Cc2cnc(N3CC4CCC(C3)N4C3COC3)nc2)cc1)[C@H](CN(Cc1c(F)cc(-c2ccn(C(F)F)n2)cc1F)NC(=O)[C@@H](NC(=O)OC)C(C)(C)C(F)(F)F)OC(=O)CC(C)(C)c1c(CC(=O)N2CCC[C@H]2C(=O)O)cc(C)cc1OP(=O)(O)O)C(C)(C)C(F)(F)F : 2057.5
COC(=O)N[C@H](C(=O)N[C@@H](Cc1ccc(C#Cc2cnc(N3CC4CCC(C3)N4C3COC3)nc2)cc1)[C@H](CN(Cc1c(F)cc(-c2ccn(C(F)F)n2)cc1F)NC(=O)[C@@H](NC(=O)OC)C(C)(C)C(F)(F)F)OC(=O)CC(C)(C)c1c(CC(=O)Nc2ccccn2)cc(C)cc1OP(=O)(O)O)C(C)(C)C(F)(F)F : 1660.2

# next compound below
Which [Compound] is listed for COC(=O)N[C@H](C(=O)N[C@@H](Cc1ccc(C#Cc2cnc(N3CC4CCC(C3)N4C3COC3)nc2)cc1)[C@H](CN(Cc1c(F)cc(-c2ccn(C(F)F)n2)cc1F)NC(=O)[C@@H](NC(=O)OC)C(C)(C)C(F)(F)F)OC(=O)OCOC(=O)CC(C)(C)c1c(CC(=O)N2CC[C@H](C(=O)O)C2)cc(C)cc1OP(=O)(O)O)C(C)(C)C(F)(F)F ?
1420.1

====

Below, each entry is listed alongside its reported solubility at 2 h.
# assay.details: Solubility in FaSSIF
# assay.context: 23 °C, pH 6.5, fassif, thermodynamic from solid
Please reply with the bare figure in µg/mL and do not write the unit itself.

COC(=O)N[C@H](C(=O)N[C@@H](Cc1ccc(C#Cc2cnc(N3CC4CCC(C3)N4C3COC3)nc2)cc1)[C@H](CN(Cc1c(F)cc(-c2ccn(C(F)F)n2)cc1F)NC(=O)[C@@H](NC(=O)OC)C(C)(C)C(F)(F)F)OC(=O)OCOC(=O)CC(C)(C)c1c(CC(=O)N2CCCC2C(=O)O)cc(C)cc1OP(=O)(O)O)C(C)(C)C(F)(F)F (stereo partly drawn) : 4390
COC(=O)N[C@H](C(=O)N[C@@H](Cc1ccc(C#Cc2cnc(N3CC4CCC(C3)N4C3COC3)nc2)cc1)[C@H](CN(Cc1c(F)cc(-c2ccn(C(F)F)n2)cc1F)NC(=O)[C@@H](NC(=O)OC)C(C)(C)C(F)(F)F)OC(=O)CC(C)(C)c1c(CC(=O)N2CC[C@@H](C(=O)O)C2)cc(C)cc1OP(=O)(O)O)C(C)(C)C(F)(F)F : 3790

# next molecule below
Which solubility at 2 h is listed for COC(=O)N[C@H](C(=O)N[C@@H](Cc1ccc(C#Cc2cnc(N3CC4CCC(C3)N4C3COC3)nc2)cc1)[C@H](CN(Cc1c(F)cc(-c2ccn(C(F)F)n2)cc1F)NC(=O)[C@@H](NC(=O)OC)C(C)(C)C(F)(F)F)OC(=O)CC(C)(C)c1c(CC(=O)N[C@@H](CCC(N)=O)C(=O)O)cc(C)cc1OP(=O)(O)O)C(C)(C)C(F)(F)F ?
4640
